System: ACHN
Assay: NCI tumour cell line growth inhibition, 48 h
Activity calls are given as the source filed them. No stated cut-off is given here; in the data, active = GI50 up to about 1.1 µM and inactive = higher.
Outcome codes: 1 = active, 0 = inactive

CC(C)=CC1CCc2ccccc2N1S(=O)(=O)c1ccc(C)cc1 (stereo unspecified) :: 0
O=[N+]([O-])c1ccc(Cl)cc1N/N=C/c1cccc2cccnc12 :: 0
O=C(O)c1cc2c(cc1CC(Cc1ccc3c(c1)CCC3)C(=O)O)CCC2 (stereo unspecified) :: 0
O=c1ccn(C2OC(COC3CCCCO3)C(OC3CCCCO3)C2OC2CCCCO2)c(=O)n1-c1ccccc1 (stereo unspecified) :: 0
O=C1CCCCC/C=C2/CC[C@H](Sc3ccccc3)[C@@H]12 :: 0
Cc1ncc2c(n1)CCC1=C2OS(=O)(=O)CC1N(C)C (stereo unspecified) :: 0
O=C(NP(=O)(N1CC1)N1CC1)c1cc(I)ccc1I [DIIODBENZOTEPH] :: 0
O=C1NC2(CN3CCC2CC3)C(=O)N1CN(Cc1ccccc1)c1ccccc1 (stereo unspecified) :: 0
O=C(c1cccc2ccccc12)C1S(=O)(=O)OCCOS1(=O)=O :: 0
CCc1nc(Cl)nc(Cl)c1Cl :: 1
O=C(O)c1ccccc1CC1Cc2ccc3c(c2C1=O)CCC3 (stereo unspecified) :: 0
OC(C/C=N/N=C/CC(O)(C(F)(F)Cl)C(F)(F)Cl)(C(F)(F)Cl)C(F)(F)Cl :: 0
O=c1sc(Nc2ccc3ccccc3c2Cl)nc2ccccc12 :: 0
[N-]=[N+]=NC1C(O)C(CO)OC1n1ccc(=O)[nH]c1=O (stereo unspecified) :: 0
N/N=C1/C(=O)N(c2ccc(Cl)cc2)C(=O)C(=O)C1c1nc2ccccc2s1 (stereo unspecified) :: 0
O=C1/C(=C/c2ccc(Cl)cc2)NC(=S)N1CN1CCOCC1 :: 0
COC(=O)C1C(O)C(C)C(O)C(C)/C=C\C=C(C)C(=O)Nc2c(C)c(OC(C)=O)c3c(c2O)C(=O)C(C)=C2OCOC(=C23)C(C)=CC(C)(O)C(O)C(C)C1O (stereo unspecified) :: 0
CC(NC(=O)C(OC(=O)C(C)NC(=O)OC(C)(C)C)C(C)C)C(=O)OC(C(=O)O)C(C)C (stereo unspecified) :: 0
CCN(c1n[n+]2c(-c3ccccc3)csc2s1)c1n[n+]2c(-c3ccccc3)csc2s1 :: 0
COc1ccc2c(c1)C(N)=C(c1ccccc1OC)C2=O :: 0
N#C[C@H]1Nc2ccccc2[C@@H](O)C1O (stereo partly specified) :: 0

====

System: UACC-257
Test: NCI tumour cell line growth inhibition, 48 h
Calls of active or inactive are those of the source. No stated cut-off is given here; in the data, active = GI50 up to about 1.1 µM and inactive = higher.
Classes used: active, inactive

CCOc1cc(C=O)ccc1O :: inactive
COC(=O)C1(OC(=O)Sc2ccccc2)CCN(C)CC1 :: inactive
COc1nc(C(=O)NNC(=O)c2nc(OC)c3ccccc3c2-c2ccccc2)c(-c2ccccc2)c2ccccc12 :: inactive
O=C1NC2CCCCCC2C12CCCCC2 (stereo unspecified) :: inactive
COC(=O)C1=C(O)c2cc3c(cc2[C@H](c2cc(OC)c(OC)c(OC)c2)C1C(=O)OC)OCO3 (stereo partly specified) :: inactive
O=C(O)/C=C/c1c[nH]c(=O)[nH]c1=O :: inactive
O=C1/C(=C/c2ccc(Cl)cc2)Oc2cc(O)ccc21 [6-HYDROXY-4'-CHLORO AURONE] :: inactive
O=C1O/C(=C\c2ccc(O)cc2)C(c2ccc(O)c(Cl)c2)=C1Br :: inactive
C/C(=N/NC(=O)c1ccccc1S(N)(=O)=O)C(CN1CCCCC1)C(C1=C(O)C2C=CC=CC2OC1=O)c1ccccc1 (stereo unspecified) :: inactive
c1ccc(OCCSCCCCCCCCCCSCCOc2ccccc2)cc1 :: inactive
N#C/C(=C\c1cc(Br)c(O)c(Br)c1)c1ccccn1 :: inactive
O=C(NNC(=O)c1ccccc1O)c1ccc(O)cc1 :: inactive
CC1=CCCC2C(C=O)(C1)CC(C)C2(CO)CC/C(=C/CO)CO (stereo unspecified) :: inactive
Oc1c(C2=NNC(c3ccc(Cl)cc3Cl)C2)ccc2ccccc12 (stereo unspecified) :: inactive
C/C(=N\NC(=O)N/N=C(\C)c1ccccn1)c1ccccn1 :: inactive
CC1CCCC(C(O)CC2CC(=O)N(c3ccccc3)C(=O)C2)C1=O (stereo unspecified) :: inactive
O=c1ccn(C2OC(COC3CCCCO3)C(OC3CCCCO3)C2OC2CCCCO2)c(=O)n1-c1ccccc1 (stereo unspecified) :: inactive
COC(=O)CCc1cccnc1/C=N/O :: inactive
O=[N+]([O-])c1ccc(-n2nnc(C3=NCCN3)c2-c2ccccc2)cc1 :: inactive
CC(=O)C1C(=O)C(=O)N(c2ccc(Cl)cc2C)C1=O (stereo unspecified) :: inactive
C[C@H]1[C@H]2[C@H]3CC[C@@H]4[C@@]5(C)CC[C@H](O)C(C)(C)[C@@H]5CC[C@@]4(C)[C@]3(C)C[C@H](O)[C@@]2(C)C[C@H]2O[C@]21C :: inactive
COc1ccc2c(c1)CCC(CN1CCN(CCOC(c3ccc(F)cc3)c3ccc(F)cc3)CC1)C2O (stereo unspecified) :: inactive
COC(=O)c1c[nH]c2nc(N3CCOCC3)nn2c1=O :: inactive
COc1cc2c(cc1OC)C1c3ccccc3C(C#N)(C2)N(C(=O)c2ccccc2)C1O (stereo unspecified) :: inactive
CCCCNC(=O)OCCN=C1c2ccccc2C(Br)C(Br)c2ccccc21 (stereo unspecified) :: inactive
COc1cc2c(c(OC)c1OC)-c1ccc(SC)c(=O)cc1[C@@H](NC(=O)c1ccc(F)cc1)CC2 :: active
COC(CC1(/C=C/O[Si](C(C)C)(C(C)C)C(C)C)C(=O)N(COCC[Si](C)(C)C)c2ccccc21)OC (stereo unspecified) :: inactive
COC1O[C@H]2CCN(C(=O)OCc3ccccc3)[C@H]2[C@H]1OCc1ccccc1 (stereo partly specified) :: inactive
[O-][S+](CCCl)c1c2ccccc2nc2ccccc12 (stereo unspecified) :: inactive
Nc1ccc(S(=O)(=O)Nc2nccs2)cc1 :: inactive
CC1CCC2C(C(=O)O[C@H]3C4CCO[C@@H](OC5OC(CO)C(O)C(O)C5O)C4[C@@]4(CO)O[C@@H]34)=CO[C@@H](OC3OC(CO)C(O)C(O)C3O)C12 (stereo partly specified) :: inactive
O=C(NCc1ccc(Cl)c(Cl)c1)c1nc2ccccc2nc1NCc1ccc(Cl)c(Cl)c1 :: inactive
COC(C(O)c1ccc2c(c1)OCO2)P(=O)(c1ccccc1)c1ccccc1 (stereo unspecified) :: inactive
Fc1cccc(C2ON=C(c3ccccc3)N2C23CC4CC(CC(C4)C2)C3)c1 (stereo unspecified) :: inactive
O=C1/C(=C/c2ccc(Cl)c(Cl)c2)CNC/C1=C\c1ccc(Cl)c(Cl)c1 :: inactive
CN1c2ccccc2N(C(=O)c2ccc([N+](=O)[O-])cc2)C(CC(=O)O)c2cccn21 (stereo unspecified) :: inactive
